assay: folding stability dG unfold from trypsin proteolysis; higher = more stable
metric: folding stability dG unfold (kcal/mol)
Express the result in kcal/mol but write the number alone.

Given SAGGSAGGSAGGKPGEKKRYRFPAPKFELVSKVKVRVKVLNEDTNELYEKEVEVFVLKLTSAGGSAGGSAGG [r7_64_TrROS_Hall] , respond with its folding stability dG unfold.
1.12

Given SAGGSAGGSAGGSFKIKDIEVNPDALKKGNFIQIRIENGWVIHINPNGEIEVVELPPDASAGGSAGGSAGGS [r4_373_TrROS] , respond with its folding stability dG unfold.
0.356

Given PWRPIMITVRANPNLKVDIYPPNGPQEEIPVDSPEDALKKAQKLLPPNYPIMVKVQNEGKPIATFPFWIPPS [r1_276_TrROS] , respond with its folding stability dG unfold.
2.84

Given SGISNEEIKKILEEIAKEYPGLKIEIKPGTEPSVAKGPKAVVTLTRKPGYLEITITFPETGETTTIPIPPSA [r9_1062_JUSTAS] , respond with its folding stability dG unfold.
2.51

Given SAGGSAGGSAGGKTIRFKAKSPEEIAEKIKKGEEILTPDGKPVKITKVEPLPDGSVLITGSAGGSAGGSAGG [r11_48_TrMRF] , respond with its folding stability dG unfold.
0.0865

Given SAGGSAGGGMKITEITIEKDPENPDTYTITIKVDGKTYTITVKKGETLYIFDKDGKLVLEIKVDSAGGSAGG [r6_920_TrROS_Hall] , respond with its folding stability dG unfold.
4

Given SAGGSAGGSALSPDDVEPIDEEPFHNPGGNPMNIGIWKNPDDGKPFIRNPGNGNPFPADDLSAGGSAGGSAG [r3_181_TrROS] , respond with its folding stability dG unfold.
-0.498

====

assay: folding stability dG unfold from trypsin proteolysis; higher = more stable
Param threshold (0.3 kcal/mol) applies to folding stability dG unfold; output rule met when value >= threshold, rule not met when value < threshold.

Check out these entries, answers already filled in.
query_sequence: SAGGSAGGSAIKKTPNGKYLLKVTFTETYKDKKTGKTYKKTYTKTYVFDKKTNKWKSAEELSAGGSAGGSAG [r3_394_TrROS_Hall]
label_value: rule met
--
query_sequence: SAMKKPPKTLTLVIVVKVPEEEMTEEQLEELARELAEALAPPGEKVEVKVEVERLPDGTVVVKIEIKLESAG [r14_389_TrROS_Hall]
label_value: rule met
--
query_sequence: SAGGSAGGSAGGMSLSTSVESLTVFDSSGNVLEERTITVEKTVPLFGKPVYVYPTPSNTLSAGGSAGGSAGG [r17_325_JUSTAS]
label_value: rule not met
--
query_sequence: SAGGSAGGSAKKIDVEVDEPVPNGYYRATIRVPGPGKPIEVNVPGPWEDAERKAKELAKELSAGGSAGGSAG [r3_104_TrROS]
label_value: rule not met
--
query_sequence: SAGGSAGGSAGGIGDDGKVRVALLDKNGKVLGPVYVTKVEEGKIEVEAEPDYTLVLNLESAGGSAGGSAGGS [r10_1257_TrMRF]
label_value: rule not met

Given the entry SAGGSAGGSAMVITKTTASVEEVKEEIKKEYPNANVKITKVSTSADGKTTYKIEIKIPKNNKSAGGSAGGSA [r18_464_JUSTAS] , answer whether its folding stability dG unfold meets or surpasses 0.3 kcal/mol.
rule met
